- testedTarget: T1, Recombinant Human PD-L1-TVMV-His (human, UniProt Q9NZQ7 19-239)
- T1 construct: expressed in HEK293T cells; also called PD-L1-His; hPD-L1(19-239)-TVMV-His
- T1 sequence (Q9NZQ7 other isoform, or with tags, fused parts or gaps limits assumed): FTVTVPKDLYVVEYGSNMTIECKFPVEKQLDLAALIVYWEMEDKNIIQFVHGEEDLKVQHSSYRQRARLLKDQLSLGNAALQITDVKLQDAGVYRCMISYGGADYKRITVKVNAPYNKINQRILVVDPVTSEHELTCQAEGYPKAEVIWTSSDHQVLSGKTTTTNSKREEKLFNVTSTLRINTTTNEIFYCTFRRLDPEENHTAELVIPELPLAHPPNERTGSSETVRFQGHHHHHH
- measurementDescription: HTRF vs PD-1-Ig; B = IC50 0.01-0.099 µM
pIC50: −log10 of the molar value. Starred links: 1 amine or outer side, 2 acyl side, 3 side chain; linkers in the order of their positions; H or OH if unused. Positions of bridges follow the written chain, without caps; N, C: chain ends. Non-standard residues stand in square brackets, D forms with d. Groups on a side chain read outwards from the residue. Primed or numbered codes have the meaning given here. No end group written: not given here. Pra″ = its azide, alkyne or alkene has reacted where a group follows in round brackets; triazole = 1,2,3-triazole formed by click of the Pra alkyne with the azide; Trp(1-CH2CO) = O=C([C@H](Cc1cn(CC(=O)[*:3])c2ccccc12)N[*:1])[*:2]; Tyr(Me) = O-methyl-tyrosine, COc1ccc(C[C@H](N[*:1])C(=O)[*:2])cc1; Hyp = O=C(O)[C@@H]1C[C@@H](O)CN1; NMeNle = CCCC[C@H](NC)C(=O)O; Pip = O=C(O)[C@@H]1CCCCN1; NMeA = CN[C@@H](C)C(=O)O; Pra = C#CC[C@H](N)C(=O)O; Dab = NCC[C@H](N)C(=O)O; Dap = NC[C@H](N)C(=O)O
readoutType: pIC50

{CH2CO}-[Tyr(Me)][Pip]DP[Dap]Q[Hyp]W[Dab][Trp(1-CH2CO)][NMeNle][NMeNle]ECG[Pra″]([triazole-(S)‑18‑((3-azido-1-carboxypropyl)amino)‑18‑oxooctadecanoic acid]) (thioether N-14) [Example 14121]	7.00 to 8.00

Turning now to a further record.
# get_value(readout='pIC50', item= {CH2CO}-Y[NMeA]NP[Dap]L[Hyp]W[Dab][Trp(1-CH2CO)][NMeNle][NMeNle]LCG[Pra] (thioether N-14; not fully specified; printed as ClAc-Tyr-[N-Me]Ala-Asn-Pro-Dap-Leu-Hyp-Trp-Dab-Trp(1-carboxymethyl)-[N-Me]Nle-[N-Me]Nle-Leu-Cys-Gly-[(S)-propargylglycine]) [INT-1300W] ) 7.00 to 8.00
